Recorded values, source the supplement of paper PMC9170038.

Entries and their measured apparent KD of MS2 coat protein follow.
test system: MS2 coat protein; test: apparent KD of MS2 coat protein; designed switch direction (-1 OFF switch, 1 ON switch): -1; higher = weaker reporter binding; conditions: input ligand: none

sequence_entry	apparent KD of MS2 coat protein (nM)
CCCAGUUAUUGAGGAUAUCCUACAUGAGGAUCACCCAUGUAAUAAAUGAGGAUUUCGGGUGUCUAGGAGAAGGCAAGGAUAGGC [Ostracism 22 - Jieux - Exclusion NG 2] (Eterna round: R96, puzzle: Exclusion NG 2)	50.5
GGAUCACAUGUGAGGAUAUGCUGGUCCUUGGAUCAGCAGAAGGCACAUGAGGAUCACCCAUGUGAUCAAGAUCC [Eli bmx4 4.78] (Eterna round: R97, puzzle: Brourd's mod of Exclusion 4)	37.1
AUAAAGUGAGGAUAUAUAAGACACGGUGAUACACCGUGAAAAUAGAAGGUACAUGAGGAUCACCCAUGUAGGGC [Mod of Anonveat 18 - Jieux - Exclusion 4] (Eterna round: R97, puzzle: Exclusion 4)	29.4
ACCAGUAUAUGGAGAUUUUACAUGAGGAUCACCCAUGUUGGGACAGCUUUUUGCUUGUCUUAUCCUACUUUGUGUGU [Design #3] (Eterna round: R97, puzzle: Sensor, turn-off variant 1)	36
GUCAUCAAACAUGGGAUAAACAUGAGGAUCACCCAUGUUAACAAGUUUUUUGCUCGUCUUAUAAUAAGUUUGAUGAC [Antenna 11 - Jieux - Sensor, turn-off variant 1] (Eterna round: R97, puzzle: Sensor, turn-off variant 1)	13.5
GACUGACAUGAGGAUCACCCAUGUAAGGAUAUAGGGAGCGUCGCUCCGCAACCCGCGCCUAGAAGGUACAAGGU [EX1 C.20] (Eterna round: R97, puzzle: Exclusion 1)	21.2
GUUUCACAUGAGGAUCACCCAUGUGAGGAUAUGGAUUCGCUGGCCGUAGCCAGUGGAUCCAGAAGGCGCGUGAU [JL-ex1-4.21] (Eterna round: R97, puzzle: Exclusion 1)	61.7
GGCACACAUGAGGAUCACCCAUGUGAGGAUAUGGUGCGAUCGUCGAUAGACGAUAGCACUAGAAGGCACAUGCC [Mat - Exclusion 1 - Eli Mod - D6] (Eterna round: R97, puzzle: Exclusion 1)	17.8
AAAACGUGAGGAUAUACUGUGAGAUCUCAAGGUACGUUAAGACAUGAGGAUCACCCAUGUAGAAGGCGCCAAAA [Eternabot (Original) Solution 15] (Eterna round: R97, puzzle: Exclusion 2)	30.9
GCUGGUCGAGGAUAUACAUGAGGAUCACCCAUGUGGUCACGUGACGAUAGUCACGAAUGUAGAAGGUGACCAGC [E3/3-B1] (Eterna round: R97, puzzle: Exclusion 3)	1760
UAAGAUUACCGAGGAUAUGGUAGUUUCUAUUAACCAGAAGGCGGACUCAACAUGAGGAUCACCCAUGUAUAAAGGGUAUUAGAU [JR_ExcNG1_Sub041] (Eterna round: R96, puzzle: Exclusion NG 1)	116
GAUUGAGCUGUUAGGAUAUCCGCAGGCCGCCUGGAGGAGAAGGAACAUGAGGAUCACCCAUGUGCACGGGAGGC [Xemaesti] (Eterna round: R97, puzzle: Brourd's mod of Exclusion 4)	15.8
GGUCAUCAAGUCAGGAUAUCGUCUGAUCAAUCAGGCGAGAAGGGACAUGAGGAUCACCCAUGUCGACUCAUCAG [Ex4 #7] (Eterna round: R97, puzzle: Brourd's mod of Exclusion 4)	19.4
CAGCUGAAAGUCAGGAUAUCUAGAGCUUCGGCUCUAGAGAAGGGACAUGAGGAUCACCCAUGUGAUCACAGCUG [BmEx4/4-A1] (Eterna round: R97, puzzle: Brourd's mod of Exclusion 4)	1900
AGAGUGCUGCGAGGAUAUACAUGAGGAUCACCCAUGUGGUCCUGUGAGGGAAAACCUCACAGGAUGUAGAAGGCGCAGUACUCA [Mat - Exclusion NG 2 - Mod of JL - D47] (Eterna round: R96, puzzle: Exclusion NG 2)	16.3
GCAGCAACUCUUACUAACUAAACAUGAGGAUCACCCAUGUCUCAGGAUAUGGUCUGGAUUACAGGCCAGAAGGGAGAAAGCUGC [Eli exng3 - 038] (Eterna round: R96, puzzle: Exclusion NG 3)	16.9
AAAGACCAAGUGAGGAUAUUAUGGACAAUGGAACAUGAGAAGGCACAUGAGGAUCACCCAUGUGAAUAGGGACG [Eternabot (Original) Solution 22] (Eterna round: R97, puzzle: Brourd's mod of Exclusion 4)	19.4
GGGUGACAUGAGGAUCACCCAUGUCAGGAUAUGGGCCCGGGCCCGAAAGGGCCCGGGUUUAGAAGGGACUGCCC [-44.4, -43.4 kcal, 22%A (-3 GC series)] (Eterna round: R97, puzzle: Exclusion 1)	42.9
